src = patent US20230127123A1

Target: PD-L1 (antigen of the kinetic measurements) (human, UniProt Q9NZQ7)
Sequence (Q9NZQ7 19-238 limits assumed): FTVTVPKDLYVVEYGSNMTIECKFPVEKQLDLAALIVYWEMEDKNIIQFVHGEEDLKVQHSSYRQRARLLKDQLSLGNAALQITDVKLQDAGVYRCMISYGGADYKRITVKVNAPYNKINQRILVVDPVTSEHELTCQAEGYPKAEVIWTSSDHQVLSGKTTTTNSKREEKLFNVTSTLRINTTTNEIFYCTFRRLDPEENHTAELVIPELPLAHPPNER
Assay: kinetic measurements for aPDL1 antibodies; instrument and antigen format not stated
Endpoint Name: koff (s⁻¹)
Report as a plain number; the unit s⁻¹ is understood.

INSERT INTO assay_data (binder, endpoint_name, unit_descriptor, assay_result) VALUES
  ('1C6 (antibody, V domains shown, anti-PD-L1 clone; also called Ab 1C6) VH: QVQLVQSGGEVKKPGASVKVSCKASGYTLSSHGITWVRQAPGQGLEWMGWISAHNGHASNAQKVEDRVTMTTDTSTNTAYMELRSLTPDDTAVYYCARVHAALYYGMDVWGQGTLVTVSS VL: LPVLTQPPSVSVAPGQTARITCGGNNIGSKSVHWYQQKPGQAPVLVVYDDSDRPSGIPERFSGSNSGNTATLTINRVEAGDEADYYCQVWDSSSDHWVFGGGTKLTVL', 'koff', 's⁻¹', 0.01),
  ('1C1 (antibody, V domains shown, anti-PD-L1 clone; also called Ab 1C1) VH: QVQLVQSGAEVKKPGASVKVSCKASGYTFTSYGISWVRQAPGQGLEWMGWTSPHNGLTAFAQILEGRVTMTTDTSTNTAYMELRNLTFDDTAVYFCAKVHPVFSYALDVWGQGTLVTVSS VL: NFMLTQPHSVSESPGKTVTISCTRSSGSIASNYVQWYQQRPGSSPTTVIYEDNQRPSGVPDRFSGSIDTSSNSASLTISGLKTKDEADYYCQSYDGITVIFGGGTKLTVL', 'koff', 's⁻¹', 0.000987),
  ('1A6 (antibody, V domains shown, anti-PD-L1 clone; also called Ab 1A6) VH: QVQLVQSGGEVKKPGASVKVSCKASGYTLSSHGITWVRQAPGQGLEWMGWISAHNGHASNAQKVEDRVTMTTDTSTNTAYMELRSLTADDTAVYYCARVHAALYYGMDVWGQGTLVTVSS VL: QSVLTQPPSVSVAPGQTARITCGGNNIGSKGVHWYQQKPGQAPVLVVYDDSDRPSGIPERFSGSNSGNTATLTISRVEAGDEADYYCQVWDSSSDHWVFGGGTKLTVL', 'koff', 's⁻¹', 0.0113),
  ('1D1 (antibody, V domains shown, anti-PD-L1 clone; also called Ab 1D1) VH: QVQLVQSGAEVKKPGASVKVSCKASGYTFTSYGISWVRQAPGQGLEWMGWISAYNGHASNAQKVEDRVTMTTDTSTNTAYMELRNLTTDDTAVYYCARVHAALYYGMDVWGQGTTVTVSS VL: SYELTQPPSVSVAPGQTARITCGGDNIGSKGVHWYQQTPGQAPVLVVYDDSDRPSGIPERFSGSKSGNTATLTISRVEAGDEADYYCQVWDSRSDHWVFGGGTRVTVL', 'koff', 's⁻¹', 0.000745),
  ('1F1 (antibody, V domains shown, anti-PD-L1 clone; also called Ab 1F1) VH: QVQLVQSGGEVKKPGASVKVSCKASGYTLSSHGITWVRQAPGQGLEWMGWISAHNGHASNAQKVEDRVTMTTDTSTNTAYMELRSLTPDDTAVYYCARVHAALYYGMDVWGQGTLVTVSS VL: QPVLTQPPSVSVAPGQTARITCGGDNIGSKGVHWLQQKPGQAPVLVVYDDRDRPSGIPERFSGSNSGSTATLTISRVEAGDEADYYCQVWDSSSDHWVFGGGTKLTVL', 'koff', 's⁻¹', 0.000338),
  ('1B4 (antibody, V domains shown, anti-PD-L1 clone; also called Ab 1B4) VH: QVQLVQSGGGLVKPGGSLRLSCVGSDFAFSSAWMNWVRQAPGKGLEWVGRIKSKTDGETTDYAAPVKDRFIISRDDSKNTLYLEMNSLKTEDTGVYYCTTGGLGLVYPYYNYIDVWGEGTTVTVSS VL: LPVLTQPPSASGTPGQRVTISCSGSSSNIGSNYVYWYQQLPGTAPKLLIYRNNQRPSGVPDRFSGSKSGTSASLAISGLRSEDEADYYCAAWDDSLNGLVFGTGTRVTVL', 'koff', 's⁻¹', 0.00124),
  ('1A3 (antibody, V domains shown, anti-PD-L1 clone; also called Ab 1A3) VH: EVQLVQSGAEVKKPGASVKVSCKASGYTLSSHGITWVRQAPGQGLEWMGWISAHNGHASNAQKVEDRVTMTTDTSTNTAYMELRSLTPDDTAVYYCARVHAALYYGMDVWGQGTLVTVSS VL: LPVLTQPPSVSVAPGQTARITCGGNNIGSKSVHWYQQKPGQAPVLVVYDDSDRPSGIPERFSGSNSGNTATLTISRVEAGDEADYYCQVWDSSSDHWVFGGGTKLTVL', 'koff', 's⁻¹', 0.0115),
  ('1H5 (antibody, V domains shown, anti-PD-L1 clone; also called Ab 1H5) VH: QVQLVQSGAEVKKPGSSVKVSCKASGGTFSRYALTWVRQAPGQGLEWMGGIIPIFGRANYAQKFQGRVTITADKSTSTAYMELGSLTSDDTAVYYCAEEGAFNSLAIWGQGTMVTVSS VL: NFMLTQPHSVSGSPGETVTISCTRSSGSIASHFVQWYQQRPGSSPTTVIFGDDQRPSGVPDRISGSIDTSSNSASLSISGLKTEDEADYYCQSYDSSNHVVFGGGTKLTVL', 'koff', 's⁻¹', 0.000367),
  ('1D2 (antibody, V domains shown, anti-PD-L1 clone; also called Ab 1D2) VH: QVQLVQSGAEVKKPGSSVKVSCKASGGTFSSYAISWVRQAPGQGLEWMGGIIPIFGTANYAQKFQGRVTITADESTSTAYMELSSLRSEDTAVYYCARDGSGYDSAGMDDWGQGTLVTVSS VL: QPGLTQPPSASGTPGQTVTISCSGSRSNIGSNYVYWYQQFPGTAPKLLIFSNNQRPSGVPDRFSGSKSGTSASLAISGLRSEDEADYYCAVWDDSLSGVVFGGGTKLTVL', 'koff', 's⁻¹', 0.00133);

Kindly review the next binder as well.
Query: Could you share which koff value was measured for 1E1. (antibody, V domains shown, anti-PD-L1 clone; also called Ab 1E1) VH: QVQLVQSGVEMKKPGASVRVSCKGSGYTFSSYGISWVRQAPGQGLEWMGWISAHNGHASNAQKLEDRVTMTTDTSTNTAYMELRSLTSDDTAVYYCARVHGALYYGMDVWGQGTTVTVSS VL: SYELTQPPSVSVAPGQTARIPCGANNIGGKSVHWYQQKPGQAPVLVVYDDRDRPSGIPERFSGSNSGNTATLTISRVEAGDEADYYCQVWDSSSDHWVFGGGTKLTVL ?
Result: 0.00884
